Population Fragmented Nuclei (%) overview
System: HEK-293T
Assay: Multiplex assay against HEK293T
Format: toxicity, cell-based
Conditions: human, 24 h, 1 µM, compound concentration 1 uM, replicate 1
Field: numeric (%). Do not append units.

{"columns": ["molecule", "uom", "Population Fragmented Nuclei (%)"],
 "data": [
  ["Cc1cnc(-c2cc(N3CCN(C(=O)CCS(C)(=O)=O)CC3)ncc2Cl)c(C)c1", "%", 8],
  ["CC(=O)Nc1cccc2c1c(Sc1ccc(Cl)cc1)c(C)n2CC(=O)O", "%", 9]
]}

Would you mind telling me what Population Fragmented Nuclei (%) value was observed for Br.CS(=O)(=O)Nc1c(O)ccc2c1CCCC2C1=NCCN1 (centres undefined) ?
10

# get_value(readout='Population Fragmented Nuclei (%)', item= Cc1c(CC(=O)O)c2cccnc2n1Cc1ccc(S(C)(=O)=O)cc1C(F)(F)F )
8

----------
The entries below are paired with their reported Population Mitotic Cells (%).
Tested on: U2OS
Experiment: Multiplex assay against U2OS
Type: toxicity, cell-based
Conditions: human, 24 h, 10 µM, compound concentration 10 uM, replicate 1
Value expressed in %; do not type the unit.

Answered cases to consult:
{"columns": ["compound", "Population Mitotic Cells (%)"],
 "data": [
  ["CCCOc1ccc2[nH]cc(C3=CCNCC3)c2n1.Cl", 7],
  ["C[C@H](N)COC(=O)[C@@H](CCCCN)NC(=O)Cc1c(-c2ccc3ccccc3c2)[nH]c2c1ccc1ccccc12", 18],
  ["CC(C)c1noc(N2CCC(COc3ccc(-c4ccc(S(C)(=O)=O)cc4)nc3)CC2)n1 [GSK-1292263]", 7],
  ["N#Cc1c(Oc2cccc(OS(=O)(=O)CCCC(F)(F)F)c2)cccc1C(F)(F)F", 33],
  ["Cc1cnc(-c2cc(N3CCN(C(=O)CCS(C)(=O)=O)CC3)ncc2Cl)c(C)c1", 20],
  ["Cl.N=C(N)NC(=O)Cc1c(Cl)cccc1Cl [GUANFACINE HYDROCHLORIDE]", 15],
  ["CC(/C=C1\\SC(=S)N(CCCC(=O)Nc2ccc(C(=O)O)c(O)c2)C1=O)=C\\c1ccccc1", 11],
  ["Cc1sc2c(c1C)C(c1ccc(Cl)cc1)=N[C@@H](CC(=O)NCCCCCCCCNC(=O)COc1cccc3c1C(=O)N(C1CCC(=O)NC1=O)C3=O)c1nnc(C)n1-2 (stereo not given in full)", 0],
  ["O=C(CCCc1ccccc1)Nc1nc2ccccc2c(=O)s1", 13]
]}

Consider the additional compound presented here.
Query Population Mitotic Cells (%) on U2OS for O=C1[C@H](Cc2ccc(O)cc2)N2C(=O)CCN(C(=O)NCc3ccccc3)[C@H]2CN1Cc1cccc2ccccc12
34

----------
Documented Population Membrane Permeable-Phenotype (%) across a set of compounds
Test system: U2OS
Assay: Multiplex assay against U2OS
Type: toxicity, cell-based
Details: human, 12 h, 10 µM, compound concentration 10 uM, replicate 2
Reply with just the number (in %).

{"columns": ["compound", "uom", "numericValue"],
 "data": [
  ["CCCCC1=NC2(CCCC2)C(=O)N1Cc1ccc(-c2ccccc2-c2nnn[nH]2)cc1 [IRBESARTAN]", "%", 8],
  ["CC(/C=C1\\SC(=S)N(CCCC(=O)Nc2ccc(C(=O)O)c(O)c2)C1=O)=C\\c1ccccc1", "%", 4],
  ["NCCc1cn(S(=O)(=O)c2c(Cl)nc3sccn23)c2ccccc12.O=C(O)C(=O)O", "%", 30]
]}

// returns reported Population Membrane Permeable-Phenotype (%) for input CN1CCN(c2cc(-c3ccccc3)nc(N)n2)CC1
10

Dear colleague, I am looking for the recorded Population Membrane Permeable-Phenotype (%) of the following compound: Cc1sc2c(c1C)C(c1ccc(Cl)cc1)=N[C@@H](CC(=O)NCCCCCCCCNC(=O)COc1cccc3c1C(=O)N(C1CCC(=O)NC1=O)C3=O)c1nnc(C)n1-2 (some centres undefined)
17

Find the recorded Population Membrane Permeable-Phenotype (%) belonging to Cl.N=C(N)NC(=O)Cc1c(Cl)cccc1Cl [GUANFACINE HYDROCHLORIDE] and report it.
12

Would you mind telling me what Population Membrane Permeable-Phenotype (%) value was observed for O=C(CCCc1ccccc1)Nc1nc2ccccc2c(=O)s1 ?
7

Given the compound CN[C@@H](C)C(=O)N[C@H](C(=O)N1CCC[C@H]1C(=O)Nc1snnc1-c1ccccc1)C1CCCCC1 [GDC-0152] , what is its reported Population Membrane Permeable-Phenotype (%)?
73

Query: Population Membrane Permeable-Phenotype (%); subject: CC(C)COc1ccc(CNC(=O)N(Cc2ccc(F)cc2)C2CCN(C)CC2)cc1 [PIMAVANSERIN]
26

# query: Population Membrane Permeable-Phenotype (%) of entry CC[C@@H](C)Nc1nc(C)nc2c(-c3ccc(OC)nc3C)c(C)nn12 [PEXACERFONT]
12

What value of measured Population Membrane Permeable-Phenotype (%) is listed for Cc1onc(-c2ccccc2Cl)c1C(=O)N(C)c1ccc(Cl)cc1 ?
7

Item O=C1[C@H](Cc2ccc(O)cc2)N2C(=O)CCN(C(=O)NCc3ccccc3)[C@H]2CN1Cc1cccc2ccccc12 has what recorded Population Membrane Permeable-Phenotype (%)?
38

Query (compound): COC[C@@H](c1ccc(C(F)(F)F)cc1)N1CCN(C2(C)CCN(C(=O)c3c(C)ncnc3C)CC2)C[C@@H]1C.O=C(O)/C=C\C(=O)O [VICRIVIROC MALEATE] ; field requested: Population Membrane Permeable-Phenotype (%)
5

// query Population Membrane Permeable-Phenotype (%) value for entry CCCOc1ccc2[nH]cc(C3=CCNCC3)c2n1.Cl
12

# query: Population Membrane Permeable-Phenotype (%) of entry Cc1cccc(NC(=O)CN2CCC(c3ccccn3)CC2)c1.Cl.Cl
12

# Population Membrane Permeable-Phenotype (%) lookup, item CCCCC(=O)N(Cc1ccc(-c2ccccc2-c2nnn[nH]2)cc1)[C@H](C(=O)O)C(C)C
1

For the compound CCCCCC(O)/C=C/[C@H]1C(=O)CC(O)C1C/C=C\CCCC(=O)O (some centres undefined) , what Population Membrane Permeable-Phenotype (%) is on record?
10

Give the measured Population Membrane Permeable-Phenotype (%) of Br.CS(=O)(=O)Nc1c(O)ccc2c1CCCC2C1=NCCN1 (centres undefined) .
6

I have this compound here, CC(=O)Nc1cccc2c1c(Sc1ccc(Cl)cc1)c(C)n2CC(=O)O [AZD1981] , and I need its recorded Population Membrane Permeable-Phenotype (%).
10
